The origin of these recorded values is paper PMC6071684.

Assignment: determine reported pEC50 for the given substances.
Target: ComD1 receptor (Streptococcus pneumoniae serotype 2)
Sequence (A0A0H2ZM50 entry or part of it): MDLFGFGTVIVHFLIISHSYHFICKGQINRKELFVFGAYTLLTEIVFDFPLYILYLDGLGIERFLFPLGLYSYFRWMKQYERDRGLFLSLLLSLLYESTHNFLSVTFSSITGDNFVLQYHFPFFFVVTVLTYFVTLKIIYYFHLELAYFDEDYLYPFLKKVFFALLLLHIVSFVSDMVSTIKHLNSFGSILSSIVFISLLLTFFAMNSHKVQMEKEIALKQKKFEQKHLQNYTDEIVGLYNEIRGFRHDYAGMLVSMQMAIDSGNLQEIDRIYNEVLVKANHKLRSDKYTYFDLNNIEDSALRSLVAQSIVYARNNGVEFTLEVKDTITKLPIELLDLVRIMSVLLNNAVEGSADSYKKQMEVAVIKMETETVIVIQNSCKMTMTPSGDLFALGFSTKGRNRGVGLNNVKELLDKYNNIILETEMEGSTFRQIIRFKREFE
Experiment: cell-based
Where no end group is shown, it is not given here.
Answers are plain numbers, as −log10 of the molar value.

EMRLSKYFRDFILQRKK-OH [CSP1-F7Y] ... 6.46
EMRVSKFFRDFILQRKK-OH [CSP1-L4V] ... 6.95
EMRISKFFRDFILQRKK-OH [CSP1-L4I] ... 7.99

Shift focus to the following entry.
Request: Dear colleague, I am looking for the recorded pEC50 of the following substance: EMRLSKFYRDFILQRKK-OH [CSP1-F8Y]
Result: 7.07
